Test: Critical aggregation concentration by surface tension (Du Noüy ring, K100 tensiometer)
Assay type: physicochemical
Conditions: unbuffered aqueous solution, 298 K
Procedure: The identity of the purified peptides was confirmed with electrospray ionization mass spectrometry (ESI-MS) in positive ion mode. Results of MS analyses and net charge are attached in Supplementary Materials (Table S1). Peptides’ hydrophobicity was evaluated by analytical reversed-phase high-performance liquid chromatography (RP-HPLC). […]
Where a SMILES comes first, the peptide text is derived from it. Bridges are numbered along the chain shown (N, C = ends). Roman numbers before positions name the chains, in order. Side-chain parts run from the residue outwards. [ ]: non-standard residue; d: D form. The star is where a group is joined. Myristoyl = CCCCCCCCCCCCCC(=O)*; Lauroyl = CCCCCCCCCCCC(=O)*; Decanoyl = CCCCCCCCCC(=O)*; Nle = CCCC[C@H](N)C(=O)O; Octanoyl = CCCCCCCC(=O)*
Reported Surface Tension at CAC values for a set of compounds
propertyMeasured: Surface Tension at CAC (mN/m)

INSERT INTO assay_data (compound, measurement) VALUES
  ('CCCCCCCC(=O)N[C@@H](CCCC)C(=O)N[C@@H](CCCNC(=N)N)C(=O)N[C@@H](CCCNC(=N)N)C(=O)NCCCC[C@H](NC(=O)[C@H](CCCNC(=N)N)NC(=O)[C@H](CCCNC(=N)N)NC(=O)[C@H](CCCC)NC(=O)CCCCCCC)C(N)=O [Compound B6] (Octanoyl-[Nle]RRK([Arg-Arg-Nle-Octanoyl])-NH2)', 37),
  ('CCCCCCCCCCCCCC(=O)N[C@@H](CCCNC(=N)N)C(=O)N[C@@H](CCCNC(=N)N)C(=O)NCCCC[C@H](NC(=O)[C@H](CCCNC(=N)N)NC(=O)[C@H](CCCNC(=N)N)NC(=O)CCCCCCCCCCCCC)C(N)=O [Compound B4] (Myristoyl-Arg-Arg-Lys([Arg-Arg-Myristoyl])-NH2)', 40),
  ('CCCCCCCCCCCC(=O)N[C@@H](CCCNC(=N)N)C(=O)N[C@@H](CCCNC(=N)N)C(=O)N[C@@H](CSSC[C@H](NC(=O)[C@H](CCCNC(=N)N)NC(=O)[C@H](CCCNC(=N)N)NC(=O)CCCCCCCCCCC)C(N)=O)C(N)=O [Compound C3] (I: Lauroyl-Arg-Arg-Cys-NH2 / II: Lauroyl-Arg-Arg-Cys-NH2; disulfide I:3-II:3)', 43),
  ('CCCCCCCC(=O)N[C@@H](Cc1ccccc1)C(=O)N[C@@H](CCCNC(=N)N)C(=O)N[C@@H](CCCNC(=N)N)C(=O)NCCCC[C@H](NC(=O)[C@H](CCCNC(=N)N)NC(=O)[C@H](CCCNC(=N)N)NC(=O)[C@H](Cc1ccccc1)NC(=O)CCCCCCC)C(N)=O [Compound B5] (Octanoyl-FRRK([Arg-Arg-Phe-Octanoyl])-NH2)', 39),
  ('CCCCCCCCCCCC(=O)N[C@@H](CCCNC(=N)N)C(=O)N[C@@H](CCCNC(=N)N)C(=O)NCCCC[C@H](NC(=O)[C@H](CCCNC(=N)N)NC(=O)[C@H](CCCNC(=N)N)NC(=O)CCCCCCCCCCC)C(N)=O [Compound B3] (Lauroyl-Arg-Arg-Lys([Arg-Arg-Lauroyl])-NH2)', 41),
  ('CCCCCCCCCCCCCC(=O)N[C@@H](CCCNC(=N)N)C(=O)N[C@@H](CCCNC(=N)N)C(N)=O [Compound A4, C14-RR-NH2] (Myristoyl-Arg-Arg-NH2)', 35),
  ('CCCCCCCCCCCC(=O)N[C@@H](CCCNC(=N)N)C(=O)N[C@@H](CCCNC(=N)N)C(N)=O [Compound A3, C12-RR-NH2] (Lauroyl-Arg-Arg-NH2)', 38),
  ('CCCCCCCCCC(=O)N[C@@H](CCCNC(=N)N)C(=O)N[C@@H](CCCNC(=N)N)C(=O)N[C@@H](CSSC[C@H](NC(=O)[C@H](CCCNC(=N)N)NC(=O)[C@H](CCCNC(=N)N)NC(=O)CCCCCCCCC)C(N)=O)C(N)=O [Compound C2] (I: Decanoyl-Arg-Arg-Cys-NH2 / II: Decanoyl-Arg-Arg-Cys-NH2; disulfide I:3-II:3)', 43),
  ('CCCCCCCCCCCCCC(=O)N[C@@H](CCCNC(=N)N)C(=O)N[C@@H](CCCNC(=N)N)C(=O)N[C@@H](CSSC[C@H](NC(=O)[C@H](CCCNC(=N)N)NC(=O)[C@H](CCCNC(=N)N)NC(=O)CCCCCCCCCCCCC)C(N)=O)C(N)=O [Compound C4] (I: Myristoyl-Arg-Arg-Cys-NH2 / II: Myristoyl-Arg-Arg-Cys-NH2; disulfide I:3-II:3)', 47),
  ('CCCCCCC(CCCC)C(=O)N[C@@H](CCCNC(=N)N)C(=O)N[C@@H](CCCNC(=N)N)C(=O)N[C@@H](CSSC[C@H](NC(=O)[C@H](CCCNC(=N)N)NC(=O)[C@H](CCCNC(=N)N)NC(=O)C(CCCC)CCCCCC)C(N)=O)C(N)=O (some centres unmarked)', 35),
  ('CCCCCCCC(=O)N[C@@H](CCCC)C(=O)N[C@@H](CCCNC(=N)N)C(=O)N[C@@H](CCCNC(=N)N)C(=O)N[C@@H](CSSC[C@H](NC(=O)[C@H](CCCNC(=N)N)NC(=O)[C@H](CCCNC(=N)N)NC(=O)[C@H](CCCC)NC(=O)CCCCCCC)C(N)=O)C(N)=O [Compound C6] (I: Octanoyl-[Nle]RRC-NH2 / II: Octanoyl-[Nle]RRC-NH2; disulfide I:4-II:4)', 35);
